# Test system: Rattus norvegicus
# ASSAY_PROCEDURE: Anti-inflammatory activity in Rattus norvegicus (rat) assessed as inhibition of carrageenan-induced paw edema at 100 mg/kg, po treated 60 min prior to carrageenan injection measured after 1 to 5 hr
# Format: functional
RECORDED_METRIC: inhibition in vivo at 100 mg/kg (%)
Give the number; % is assumed, so skip it.

COc1ccc(/C=C/C2=C(C(=O)O)C(c3ccc(OC)cc3)NC(=S)N2)cc1 (stereo not given): 38

Challenge: Determine from records and report inhibition in vivo at 100 mg/kg for O=C1NC(/C=C/c2ccccc2)=C(C(=O)O)C(c2ccccc2)N1 (stereo not given)
Response given: 16

Challenge: Determine from records and report inhibition in vivo at 100 mg/kg for O=C1NC(/C=C/c2ccc(O)cc2)=C(C(=O)O)C(c2ccc(O)cc2)N1 (stereo not given)
Response given: 12

Challenge: Determine from records and report inhibition in vivo at 100 mg/kg for CC(C)Cc1ccc(C(C)C(=O)O)cc1 (stereo not given)
Response given: 56

Challenge: Determine from records and report inhibition in vivo at 100 mg/kg for COc1ccc(/C=C/C2=C(C(=O)O)C(c3ccc(OC)cc3)NC(=O)N2)cc1 (stereo not given)
Response given: 23

---

Below is a list of entries, each paired with its recorded pIC50 value.
# TGT: Prostaglandin G/H synthase 1 (Ovis aries)
# Sequence (P05979 whole entry): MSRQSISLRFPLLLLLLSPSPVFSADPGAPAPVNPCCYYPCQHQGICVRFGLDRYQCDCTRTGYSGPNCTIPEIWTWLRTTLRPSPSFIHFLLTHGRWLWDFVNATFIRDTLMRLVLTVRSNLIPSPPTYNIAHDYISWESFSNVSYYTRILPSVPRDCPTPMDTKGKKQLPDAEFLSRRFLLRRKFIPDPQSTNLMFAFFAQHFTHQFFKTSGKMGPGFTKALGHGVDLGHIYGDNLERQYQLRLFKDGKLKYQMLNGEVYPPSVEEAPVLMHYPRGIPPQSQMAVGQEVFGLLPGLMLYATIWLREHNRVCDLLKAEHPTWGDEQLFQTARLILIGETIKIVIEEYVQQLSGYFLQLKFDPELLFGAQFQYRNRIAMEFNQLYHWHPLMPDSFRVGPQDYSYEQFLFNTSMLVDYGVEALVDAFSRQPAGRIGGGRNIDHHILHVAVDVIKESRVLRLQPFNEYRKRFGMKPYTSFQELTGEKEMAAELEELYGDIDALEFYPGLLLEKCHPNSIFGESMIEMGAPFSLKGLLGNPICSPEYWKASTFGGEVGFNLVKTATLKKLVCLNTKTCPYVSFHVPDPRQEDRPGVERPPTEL
# ASSAY_PROCEDURE: Inhibition of Ovis aries (sheep) COX-1 assessed as decrease in PGF2a production from PGH2 upon reduction with stannous chloride using arachidonic acid as substrate pre-incubated with enzyme for 5 min prior to substrate addition by enzyme immunoassay
Give only the number. pIC50 is defined as minus log10 of concentration in molar units.

COc1ccc(/C=C/C2=C(C(=O)O)C(c3ccc(OC)cc3)NC(=O)N2)cc1 (configuration not stated): 4.83

Let us move to another entry and its pIC50.
Challenge: Determine from records and report pIC50 for COc1ccc(/C=C/C2=C(C(=O)O)C(c3ccc(OC)cc3)NC(=S)N2)cc1 (configuration not stated)
Response given: 4.84
